# testedOn: human GRP receptor (human, UniProt P30550 1-384)
# Sequence (P30550 whole entry): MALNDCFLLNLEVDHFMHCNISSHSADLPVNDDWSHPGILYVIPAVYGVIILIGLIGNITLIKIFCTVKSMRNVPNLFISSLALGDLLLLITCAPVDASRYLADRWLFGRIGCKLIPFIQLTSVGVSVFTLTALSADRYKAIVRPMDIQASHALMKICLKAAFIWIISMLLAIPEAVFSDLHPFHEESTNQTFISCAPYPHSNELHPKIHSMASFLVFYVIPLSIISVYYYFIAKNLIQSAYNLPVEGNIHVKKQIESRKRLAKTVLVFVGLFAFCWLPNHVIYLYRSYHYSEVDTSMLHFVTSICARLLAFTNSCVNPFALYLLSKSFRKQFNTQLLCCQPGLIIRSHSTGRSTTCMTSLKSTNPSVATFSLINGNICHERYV
# experimentSummary: cell-based or functional assay
Starred links: 1 amine or outer side, 2 acyl side, 3 side chain; linkers in the order of their positions; H or OH if unused. Non-standard residues stand in square brackets, D forms with d. *: point of attachment. Trp(7-F) = N[C@@H](Cc1c[nH]c2c(F)cccc12)C(=O)O; d(γGlu) = O=C(O)[C@@H](CCC(=O)[*:2])N[*:1]; C18 diacid = O=C(O)CCCCCCCCCCCCCCCCC(=O)*; γGlu = O=C(O)[C@H](CCC(=O)[*:2])N[*:1]; 3Pal = N[C@@H](Cc1cccnc1)C(=O)O; Nle = CCCC[C@H](N)C(=O)O; AEEA = NCCOCCOCC(=O)O; Sar = CNCC(=O)O
Consider the following binders and their measured hIP1 GRPR EC50 readings.
The figure you give is taken to be in nM; do not add the unit.

binder	hIP1 GRPR EC50 (nM)
{C18 diacid}-[γGlu][AEEA][AEEA][AEEA][AEEA]GNH[Trp(7-F)]AV[dA]HL[Nle][Sar]-NH2 (SMILES CCCC[C@H](NC(=O)[C@H](CC(C)C)NC(=O)[C@H](Cc1c[nH]cn1)NC(=O)[C@@H](C)NC(=O)[C@@H](NC(=O)[C@H](C)NC(=O)[C@H](Cc1c[nH]c2c(F)cccc12)NC(=O)[C@H](Cc1c[nH]cn1)NC(=O)[C@H](CC(N)=O)NC(=O)CNC(=O)COCCOCCNC(=O)COCCOCCNC(=O)COCCOCCNC(=O)COCCOCCNC(=O)CC[C@H](NC(=O)CCCCCCCCCCCCCCCCC(=O)O)C(=O)O)C(C)C)C(=O)N(C)CC(N)=O) [Peptide 101]	352

Shifting focus to the binder that follows.
Give recorded hIP1 GRPR EC50. {C18 diacid}-[d(γGlu)][AEEA][AEEA]GN[3Pal]WAV[dA]HL[Nle]-NH2 (SMILES CCCC[C@H](NC(=O)[C@H](CC(C)C)NC(=O)[C@H](Cc1c[nH]cn1)NC(=O)[C@@H](C)NC(=O)[C@@H](NC(=O)[C@H](C)NC(=O)[C@H](Cc1c[nH]c2ccccc12)NC(=O)[C@H](Cc1cccnc1)NC(=O)[C@H](CC(N)=O)NC(=O)CNC(=O)COCCOCCNC(=O)COCCOCCNC(=O)CC[C@@H](NC(=O)CCCCCCCCCCCCCCCCC(=O)O)C(=O)O)C(C)C)C(N)=O) [Peptide 64]
49.4
